Please go through the items and note down their Binding Capacity.
- Test system: monoclonal antibody MV-001
- RUN_DESCRIPTION: In vitro binding assay (ELISA), BSA-coupled peptides, parental antibody MV-001
- Design: species or system C57/B16 mice
- MEASUREMENT_CONDITIONS: Table 1C; peptide-BSA on plate, compared to original epitope

Lookup: Requested field: Binding Capacity. Item: QLFKHSPC [p4747]
Found: 3 (strong binding :>20000)

Lookup: Reported Binding Capacity for YSMRHDAC [p4705] : what is it?
Found: 2 (medium binding :4000-20000)

Lookup: For the substance shown here, SEFKHGC [p4381] , give the reported Binding Capacity.
Found: 3 (strong binding :>20000)

Lookup: Name the reported Binding Capacity value associated with the substance EELRHSVC [p4746]
Found: 3 (strong binding :>20000)

Lookup: So what does the record say about Binding Capacity for HEFRHC [p4803] ?
Found: 3 (strong binding :>20000)

Lookup: If you can, please state the reported Binding Capacity value of NSSELRHC [p4752] .
Found: 3 (strong binding :>20000)

Lookup: Form field: reported Binding Capacity of ILFRHGC [p4390]
Found: 3 (strong binding :>20000)

Lookup: Data request, read-out Binding Capacity, for TYFSHSLC [p4718]
Found: 2 (medium binding :4000-20000)

Lookup: Need Binding Capacity, item QSEFKHWC [p4738]
Found: 3 (strong binding :>20000)

Lookup: Looking for the measured Binding Capacity of AEFSHWHC [p4737] , can you help?
Found: 2 (medium binding :4000-20000)

Lookup: Would you kindly share the measured Binding Capacity for SQFRHYC [p4385] ?
Found: 2 (medium binding :4000-20000)

Lookup: What does the record list as Binding Capacity for AYFPHTSC [p4751] ?
Found: 2 (medium binding :4000-20000)

Lookup: Using the record for TGLMFKHC [p4736] , report its Binding Capacity.
Found: 2 (medium binding :4000-20000)

Lookup: Consider the substance shown here: CSEFKH [p4800] What is its recorded Binding Capacity?
Found: 3 (strong binding :>20000)

Lookup: What Binding Capacity value was documented for this substance, LHIPFRHC [p4726] ?
Found: 3 (strong binding :>20000)

Lookup: Form field: reported Binding Capacity of TSTEMWHC [p4754]
Found: 1 (weak binding :<4000)

Lookup: I'd like to know its Binding Capacity. The substance in question is QVMRHHAC [p4711]
Found: 2 (medium binding :4000-20000)

Lookup: I am curious: what Binding Capacity value has been reported for QELKRYYC [p4724] ?
Found: 1 (weak binding :<4000)
